Each item that follows carries a reported T/C.
# Tested on: CD2F1 mice, L1210 leukemia ip, survival T/C
# Test summary: NCI In Vivo Anticancer Drug Screen. Data for tumor model L1210 Leukemia (intraperitoneal) in CD2F1 (CDF1) mice
# Measurement context: endpoint: mean survival time; dose: 100.0 mg/kg/injection; schedule: Q01DX009 (ip); vehicle: Klucel (hydroxypropylcellulose) (HPC); higher = longer survival
Toxic doses and inconclusive results are not listed.

>>> readout_value("CC(=O)C1CCC2(C)C(CCC3C4CCC(C(C)=O)C4(C)CC(=O)C32)C1 (configuration not stated)")
"100 % of control"
>>> readout_value("O=C1NC(c2ccccc2Cl)Nc2ccccc21 (configuration not stated)")
"107 % of control"
>>> readout_value("CC1(CCCc2ccc(N(CCCl)CCCl)cc2)NC(=O)NC1=O (configuration not stated)")
"93 % of control"
>>> readout_value("NNC(=O)CNc1cccc(Br)c1")
"97 % of control"
>>> readout_value("Cc1cc(Cl)ccc1N=Cc1ccc2c(c1)OCO2")
"108 % of control"
>>> readout_value("CC/C(=N/NC(=O)c1ccccc1)c1ccccc1")
"97 % of control"

Input CC(=O)OCc1cc(=O)n(C)c2c3c4c(cc12)c(C)cc(=O)n4CO3 . Output T/C: 90 % of control

Input O=C1NC(=O)C(=Cc2cc3c(cc2Br)OCO3)C(=O)N1 . Output T/C: 89 % of control

Input COCC1OC2OC3C(COC)OC(OC4C(COC)OC(OC5C(COC)OC(OC6C(COC)OC(OC7C(COC)OC(OC8C(COC)OC(OC1C(O)C2O)C(O)C8O)C(O)C7O)C(O)C6O)C(O)C5O)C(O)C4O)C(O)C3O (configuration not stated) (tested in a mixture with another compound) . Output T/C: 94 % of control

Input CC(C)(C)CC(C)(C)c1ccc(OCCOc2ccc(CC(=S)N3CCOCC3)cc2)cc1 . Output T/C: 96 % of control

Input Cn1cnc([N+](=O)[O-])c1S(=O)(=O)NCN1CCOCC1 . Output T/C: 96 % of control

Input O=C(O)CSCc1ccc(Cl)cc1Cl . Output T/C: 87 % of control

Input CCC(c1ccccc1)C(CC)c1ccc(N(C)C)cc1 (configuration not stated) . Output T/C: 94 % of control

Input O=S1(=O)C=CCCC=C1 . Output T/C: 93 % of control

Input CCOC(=O)C1=C(C)NC(C)=C(C(=O)OCC)C1c1cccc([N+](=O)[O-])c1 . Output T/C: 105 % of control

Input CCCCCCCCCCCCCCCCOc1ccc(C(=O)OC)cc1NS(=O)(=O)c1ccc(C(=O)O)cc1 . Output T/C: 98 % of control

Input O=C(O)CCSc1ccc2c(c1)CCCC2 . Output T/C: 101 % of control

----------
# System: CD2F1 mice, L1210 leukemia ip, survival T/C
# Test summary: NCI In Vivo Anticancer Drug Screen. Data for tumor model L1210 Leukemia (intraperitoneal) in CD2F1 (CDF1) mice
# Measurement context: endpoint: mean survival time; dose: 200.0 mg/kg/injection; schedule: Q01DX009 (ip); vehicle: saline with Tween-80; higher = longer survival
Inconclusive results and toxic doses are left out.
Assay metric: T/C

Consider the worked cases shown below.
>>> readout_value("c1cc2nc(c1)CSCCCCCCCCSC2")
"91 % of control"
>>> readout_value("O=C(O)C(Br)C(Br)c1ccccc1 (configuration not stated)")
"93 % of control"
>>> readout_value("COc1ccc(N=C(c2ccccc2)c2ccccc2)cc1")
"97 % of control"

Input CN(C)C(=O)c1ccc(Cl)c(Cl)c1 . Output T/C: 107 % of control

Input Cc1ccc(N2OCCN(C(=O)c3cc([N+](=O)[O-])cc([N+](=O)[O-])c3)C2c2ccccc2)cc1 (configuration not stated) . Output T/C: 95 % of control

Input C=CCCCCn1c2ccccc2c2c(C)c3cnccc3c(C)c21 . Output T/C: 102 % of control

Input O=c1c2cc([N+](=O)[O-])cc3c2-c2c4c(cc([N+](=O)[O-])cc14)c(O)c1cc([N+](=O)[O-])cc(c3=O)c21 . Output T/C: 117 % of control
